As shown below, each of these molecules has a reported viability at 28.5 h, 10 µM value.
# experiment: in vitro
# condition-details: human, hela cells, % viability

molecule	scale-unit	viability at 28.5 h, 10 µM
Nc1cc2ccccc2c(-c2cccc(C(F)(F)F)c2)n1 [CBK085721]	%	101
Cc1cc(=[N+]2CCCCC2)cc(C)o1 [CBK022824I]	%	96.7
COc1ccc(C(NC(=O)c2ccc(Cn3cncn3)cc2)c2ccccc2)cc1 (centres unmarked) [CBK285749]	%	106
CC(C)(C)NC(=O)CN1CCC(c2ccc(F)cc2)CC1 [CBK283629]	%	90.1
CCN1CCN(Cc2nc3c(c(=O)n(C)c(=O)n3C)n2Cc2c(F)cccc2Cl)CC1 [CBK269236]	%	108
Cc1oc(C(=O)O)cc1CSC(C)C(=O)O (centres unmarked) [CBK263556]	%	93.8
COc1ccc(CCNC(=O)N2CCCC(C(=O)O)C2)cc1OC (centres unmarked) [CBK161354]	%	100
CN(CCO)C(=O)CCn1c(C(F)F)cc2cccnc21 [CBK282805]	%	91.9
CCN(C)S(=O)(=O)c1ccc(Cl)c(Cl)c1 [CBK045392]	%	113
COc1cc(NC(=O)COc2cccc3ccccc23)c(C(=O)O)cc1OC [CBK268253]	%	76.6
O=C(O)c1cn(C2CC2)c2cc(N3CCN(C(=O)C4CCCO4)CC3)c(F)cc2c1=O (centres unmarked) [CBK297139]	%	97.7
CC(CN(C)C(=O)Cn1cccc(C(=O)NC2CCCCC2)c1=O)c1ccccc1 (centres unmarked) [CBK286066]	%	92.5
Cc1cc(C)n2nc(NC(=O)C(C)Oc3ccccc3)nc2n1 (centres unmarked) [CBK270039]	%	89.9
Cc1cc(C)n(CC(C)NC(=O)C(c2ccccc2)N2CCCC2)n1 (centres unmarked) [CBK281645]	%	82.1
Cc1cccc(CN2CCC(NC(=O)c3cn(C(C)(C)C)nn3)CC2)c1 [CBK305927]	%	92
CN1CCN(C(=O)c2ccc(-c3ccccc3)nc2NCCc2ccccn2)CC1 [CBK076550]	%	93.3
CCOC(=O)c1cnc2c(C(F)(F)F)cccc2c1NCCCN1CCOCC1 [CBK266012]	%	92.4
CN(C)CC1CN(c2nc(-c3ccncc3)nc3c2CCC3)CCO1 (centres unmarked) [CBK305824]	%	83
Cc1ccc(NC(=O)C2C3C=CC(O3)C2C(=O)O)cc1 (centres unmarked) [CBK263670]	%	91.4
CC(C)c1ccc(C(C)NC(=O)c2cccn(CC(=O)NC3CCCC3)c2=O)cc1 (centres unmarked) [CBK286018]	%	91.3

* * *

# experiment: in vitro
# condition-details: human, hela cells, % viability
Lab note: cut-off is 90%. Strictly less in viability at 28.5 h, 10 µM is true. Exactly 90% or more is false.

molecule	classification
COc1cccc(Oc2cnc(-c3cccc(C(F)(F)F)c3)c(N)n2)c1	false
c1ccc(CCN2CCN(CC3COc4ccccc4O3)CC2)cc1 (centres unmarked)	true
OCCNc1nc(Nc2ccc(Cl)cc2)nc(N2CCCCC2)n1	false
CC1CCCN(Cc2c(C3CCCNC3)[nH]c3ncccc23)C1 (centres unmarked)	true
Cc1ccc(Cc2cnc(NC(=O)C3CNC(=O)N3)s2)cc1F (centres unmarked)	false
CC(=O)N1CCC(N2C[C@H](O)C[C@H]2c2nc(C3CC3)no2)CC1	false
CN(CC(=O)NCC1CCN(c2cccc(Cl)c2)C1)Cc1cccnc1 (centres unmarked)	false
O=C(Nc1nc2c(s1)CCCC2)c1ccccc1	true
CC1(C)COC(=O)N1C1CCN(C(=O)c2ccno2)CC1	false
CCN(CC(=O)NCc1cccnc1)S(=O)(=O)c1ccc2ccccc2c1	false
O=C(CSc1ccccc1)c1ccccc1	false
Oc1ccc(C2N=C(c3ccccc3)N=C(c3ccccc3)N2)cc1 (centres unmarked)	false
O=C(CN1CCCCC1)Nc1ccc(NC(=O)CN2CCCCC2)cc1	true
O=S(=O)(Nc1ccccn1)c1cccs1	false
Cc1ccc(Nc2nc(N3CCOCC3)nc3nccnc23)cc1	false
Clc1ccc(OCc2nc3ccccc3n2CCOc2ccccc2)c(Cl)c1	false

* * *

# experiment: in vitro
# condition-details: human, hela cells, % viability
# Lookup of reported viability at 28.5 h, 10 µM keyed by entry
readout: viability at 28.5 h, 10 µM (%)

molecule	readout-value
CCn1c2cc(C)sc2c2cnn(CC(=O)NC(C)(C)C)c(=O)c21 [CBK284152]	92.5
CCOC(=O)N1CCC(NC(=O)N(CCc2ccccc2)Cc2ccccc2)CC1 [CBK155359]	107
CCOC(=O)c1ccccc1NS(=O)(=O)c1ccc(C)c([N+](=O)[O-])c1 [CBK045451]	88.7
O=C(CCSc1nc(-c2ccco2)cc(C(F)(F)F)n1)N1CCN(c2ccccn2)CC1 [CBK267626]	99
CCOCc1nc2c(c(NCc3cc(C)on3)n1)CCN(C(C)=O)CC2 [CBK307512]	87.4
Cn1c2ccccc2c2ncn(CCS)c(=O)c21 [CBK288412]	114
COc1cccc(NC(=O)c2cnc(-c3ccccc3)c(-c3cccnc3)c2)c1OC [CBK037487]	92.8
O=C(Nc1sc2c(c1C(=O)O)CCC2)c1ccco1 [CBK152436]	101
COc1ccccc1-c1nnc(NC(=O)Cc2cccs2)s1 [CBK287361]	93.5
NNC(=O)c1cc(O)n[nH]1 [CBK262669]	106
c1cncc(CNc2cccc(OCCOc3nccnc3N3CCNCC3)c2)c1 [CBK200008]	89.2
FC(F)(F)c1cccc(SCCc2ccccn2)n1 [CBK103719]	97.3
O=C(c1ccc2[nH]ccc2c1)N1CCc2ccccc21 [CBK200269]	101
CN1CCN(C2=NC(=O)CC(C(=O)Nc3ccccc3)N2)CC1 (centres unmarked) [CBK267884]	97.1
O=C(NCCCn1ccnc1)Nc1cccc(Cl)c1 [CBK265458]	93.9
Cc1ccc2nc(-c3ccc(NC(=O)CSc4nnc(C)s4)cc3)sc2c1 [CBK266185]	92.5
Cc1nc(S(=O)(=O)Nc2nc(C(C)C)ns2)cn1C [CBK051323]	107
C#CCN(C)CC[C@@H]1CC[C@H](O)[C@@H](C(=O)N2CCOCC2)O1 [CBK288723]	108
O=C(c1ccco1)N1CCN(c2ccc(-c3ccc(F)c(Cl)c3)cn2)CC1 [CBK037683]	93.9
CC(C)(C)NS(=O)(=O)c1ccc(CCC(=O)Nc2ccc(F)c(Cl)c2)cc1 [CBK266974]	89.9

* * *

# experiment: in vitro
# condition-details: human, hela cells, % viability
Here, each record is paired with measured viability at 28.5 h, 10 µM data.

compound	viability at 28.5 h, 10 µM, %
O=C(CCS(=O)(=O)c1ccccc1)Nc1c(F)cc(F)cc1OC1CCNCC1 [CBK050226T]	87.4
O=C(O)c1ccc(NS(=O)(=O)c2cc(Cl)sc2Cl)cc1 [CBK034046]	99.9
O=C(c1cnc2ccccc2n1)N1CCc2ccccc21 [CBK200267]	117
Cc1ccc(-n2ncc3c(=O)n(CC(=O)NC4CCCCC4)cnc32)cc1 [CBK287536]	78.1
O=C(c1ccco1)N1CCN(C(=S)Nc2ccc(S(=O)(=O)Nc3ncccn3)cc2)CC1 [CBK267096]	104
COc1cc(OC)c(C(C)=O)c(OCCOc2nccnc2N2CCNCC2)c1 [CBK013497T]	95.8
CC(=O)N1CC2(CCN(C(=O)C(C)(C)C)CC2)Nc2ccccc21 [CBK284448]	102
OC(CN(c1ccccc1)c1ccccc1)Cn1cnc2ccccc21 (stereo not shown) [CBK261417]	86.8
CC(=O)N1CCc2c([nH]c3ccccc23)C12CCN(CCc1ccccc1)CC2 [CBK039757]	78.8
Clc1cccc(Nc2cncc(-c3cccc4ccccc34)n2)c1 [CBK065764]	93.4
CC(=O)N1C[C@H](c2ccsc2)[C@H]2CN(Cc3cccs3)CC[C@H]21 [CBK284586]	109
O=C(Nc1ccc2c(c1)OCCO2)c1cnc(-c2ccc(Cl)cc2)c(-c2cccnc2)c1 [CBK037528]	110
COC(=O)c1ccccc1NC(=O)N1CCN(S(=O)(=O)c2ccc(Cl)cc2)CC1 [CBK266860]	88
C[C@H](Nc1nc(-c2ccc(-c3ccccc3)cc2)cnc1N)c1ccccc1 [CBK063760]	93.5
CN(Cc1ccccc1)S(=O)(=O)c1ccc2c(c1)n(C)c(=O)n2C [CBK266644]	95.6
Cc1nn(CC(=O)NC2CCCCC2)c(=O)c2cc3ccsc3n12 [CBK284080]	94.9
CN(C)CCNC(=O)c1cccc(-c2cn3ccnc3c(NCc3ccccc3)n2)c1 [CBK066365]	102
Cc1cc(C)nc(Nc2n[nH]c(-c3ccccc3Cl)n2)n1 [CBK288167]	98.2
N#CCC(=O)Nc1ccc(C(=O)N2CCN(c3ccccc3)CC2)cc1 [CBK306060]	91.9
